Test system: A549/ATCC NSCLC
Assay: NCI-60 one-dose screen, 48 h
Conditions: 10 µM unless noted
About 83,000 compounds went through this panel and 20% of them were active in at least one assay; those are over-represented in the sample as a whole. Active and inactive are the calls of the source. The calls were made as follows: active = growth percent below 10; inactive = the rest.
Hi! Could you answer with just one of these? active, inactive

Use these answered entries as a reference point.
compound	category label
Cc1cccc2c1C[C@@]1(C2=O)C(c2ccc(C(C)(C)C)cc2)=NOS1=O (stereo not given in full)	inactive
C=CCN1C(=O)c2cccc3c(N4CCOCC4)ccc(c23)C1=O	active
C#CCNC(=O)[C@]1(C)CCC[C@@]2(C)[C@H]1CC=C1C=C(C(C)C)CC[C@@H]12	inactive

What classification did `CN(C)CCCNC(=O)c1cncnc1Nc1ccc(OCc2cccc(F)c2)c(Cl)c1` end up with in this test?
active

What classification did `COc1ccc(CNc2c3ccccc3nc3ccccc23)c(OC)c1` end up with in this test?
inactive

The measured values listed here are drawn from PubChem BioAssay (NCI).
